Every entry's value here was drawn from patent US20200147235A1.

Biological target: T1, Cynomolgus monkey CD98 ECD with C-terminal His-tag (cynomolgus monkey, UniProt P08195 105-529 (human entry))
T1 construct: also called cyCD98 ECD; recombinant cynomolgus monkey CD98 extracellular domain
T1 chain: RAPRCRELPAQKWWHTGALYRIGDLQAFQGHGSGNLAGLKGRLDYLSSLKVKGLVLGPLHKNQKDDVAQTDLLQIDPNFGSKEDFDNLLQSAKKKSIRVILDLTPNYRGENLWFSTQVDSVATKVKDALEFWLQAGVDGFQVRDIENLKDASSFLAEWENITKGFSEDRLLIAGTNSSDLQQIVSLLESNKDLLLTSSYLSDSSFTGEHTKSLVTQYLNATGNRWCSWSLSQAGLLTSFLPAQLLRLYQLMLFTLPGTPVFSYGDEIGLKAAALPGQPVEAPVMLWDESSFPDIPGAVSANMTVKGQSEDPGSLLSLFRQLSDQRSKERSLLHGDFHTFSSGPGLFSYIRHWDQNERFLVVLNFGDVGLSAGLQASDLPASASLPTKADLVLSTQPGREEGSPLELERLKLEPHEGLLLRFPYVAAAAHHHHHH
Experiment: SPR Biacore, anti-Fc capture of mAb, CD98 ECD analyte
ASSAY METRIC: log10 Kd (log10 of the value in nM)
Response schema: value (number) is log10 of Kd in units of nM.

INSERT INTO measurements (binder, value_reported) VALUES
  ('Anti-CD98 rat hybridoma antibody Ab6 (antibody, V domains shown) VH: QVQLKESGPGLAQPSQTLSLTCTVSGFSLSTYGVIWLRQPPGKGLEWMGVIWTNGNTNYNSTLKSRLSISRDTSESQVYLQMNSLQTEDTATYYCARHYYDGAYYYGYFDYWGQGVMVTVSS VL: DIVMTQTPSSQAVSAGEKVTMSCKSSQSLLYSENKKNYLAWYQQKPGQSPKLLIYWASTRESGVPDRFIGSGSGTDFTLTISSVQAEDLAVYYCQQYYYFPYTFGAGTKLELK', 0.77),
  ('Anti-CD98 rat hybridoma antibody Ab7 (antibody, V domains shown) VH: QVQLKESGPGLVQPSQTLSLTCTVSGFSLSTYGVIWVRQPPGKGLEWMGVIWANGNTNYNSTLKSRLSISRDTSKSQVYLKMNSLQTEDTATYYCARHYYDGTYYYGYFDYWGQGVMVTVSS VL: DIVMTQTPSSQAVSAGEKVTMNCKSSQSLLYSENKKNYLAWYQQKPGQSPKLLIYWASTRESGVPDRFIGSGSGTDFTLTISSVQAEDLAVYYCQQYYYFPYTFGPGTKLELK', 0.48),
  ('Anti-CD98 rat hybridoma antibody Ab15 (antibody, V domains shown) VH: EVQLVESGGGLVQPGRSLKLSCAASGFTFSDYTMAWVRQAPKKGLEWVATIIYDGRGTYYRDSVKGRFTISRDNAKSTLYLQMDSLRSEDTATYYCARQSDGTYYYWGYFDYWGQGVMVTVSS VL: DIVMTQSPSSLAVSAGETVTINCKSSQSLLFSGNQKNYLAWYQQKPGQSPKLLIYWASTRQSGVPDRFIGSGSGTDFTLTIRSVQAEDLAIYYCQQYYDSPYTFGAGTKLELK', 0.52),
  ('Anti-CD98 murine hybridoma antibody Ab5 (antibody, V domains shown) VH: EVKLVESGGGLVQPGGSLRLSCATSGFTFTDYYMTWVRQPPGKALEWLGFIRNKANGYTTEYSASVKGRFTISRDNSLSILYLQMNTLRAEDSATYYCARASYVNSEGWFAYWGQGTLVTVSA VL: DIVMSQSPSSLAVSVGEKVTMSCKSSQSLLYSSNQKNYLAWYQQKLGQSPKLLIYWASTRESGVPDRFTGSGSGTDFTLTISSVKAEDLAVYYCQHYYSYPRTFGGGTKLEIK', 1.04);

Proceeding to the next binder to report its log10 Kd.
Fill in log10 Kd for record Anti-CD98 rat hybridoma antibody Ab11 (antibody, V domains shown) VH: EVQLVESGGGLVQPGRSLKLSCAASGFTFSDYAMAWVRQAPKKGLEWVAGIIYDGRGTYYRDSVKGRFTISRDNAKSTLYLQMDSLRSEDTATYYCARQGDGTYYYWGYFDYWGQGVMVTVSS VL: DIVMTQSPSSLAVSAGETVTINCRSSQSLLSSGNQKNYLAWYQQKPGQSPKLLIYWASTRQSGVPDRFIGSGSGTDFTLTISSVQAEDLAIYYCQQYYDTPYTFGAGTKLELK
1.86
